protocol: Stability in human liver microsomes at 1 uM after 60 mins by LC-MS/MS method
Format: ADME, Microsome
test.context: read-out: Stability
endpoint: remaining at 1 h, 1 µM (%)

>>> measurement("C[C@@H]1CNC[C@@H](C(=O)Nc2ncc(SCc3ncc(C(C)(C)C)o3)s2)C1")
25
>>> measurement("CC(C)C1CC(C(=O)Nc2ncc(SCc3ncc(C(C)(C)C)o3)s2)CCN1 (stereo unspecified)")
7
>>> measurement("CC1CNCC(C(=O)Nc2ncc(SCc3ncc(C(C)(C)C)o3)s2)C1 (stereo unspecified)")
39
>>> measurement("CC(C)(C)c1cnc(CSc2cnc(NC(=O)C3CCCNC3)s2)o1 (stereo unspecified)")
74
>>> measurement("CC1NCCCC1C(=O)Nc1ncc(SCc2ncc(C(C)(C)C)o2)s1 (stereo unspecified)")
4
>>> measurement("CC1CCC(C(=O)Nc2ncc(SCc3ncc(C(C)(C)C)o3)s2)CN1 (stereo unspecified)")
49
>>> measurement("C[C@@H]1CNC[C@H](C(=O)Nc2ncc(SCc3ncc(C(C)(C)C)o3)s2)C1")
45
>>> measurement("CC(C)(C)c1cnc(CSc2cnc(NC(=O)C3CCNCC3)s2)o1")
87
>>> measurement("C[C@H]1CNC[C@H](C(=O)Nc2ncc(SCc3ncc(C(C)(C)C)o3)s2)C1")
35
>>> measurement("C[C@H]1CNC[C@@H](C(=O)Nc2ncc(SCc3ncc(C(C)(C)C)o3)s2)C1")
29
>>> measurement("CCC1CC(C(=O)Nc2ncc(SCc3ncc(C(C)(C)C)o3)s2)CCN1 (stereo unspecified)")
41

* * *

protocol: Stability in mouse liver microsomes at 1 uM after 30 mins by LC-MS/MS method
Format: ADME, Microsome
test.context: read-out: Stability
Range-based classes on measured remaining at 0.5 h, 1 µM: interval 1: < 30%; interval 2: ≥ 30% and < 50%; interval 3: ≥ 50%

>>> assigned_label("CC1NCCCC1C(=O)Nc1ncc(SCc2ncc(C(C)(C)C)o2)s1 (stereo not given)")
"interval 1"
>>> assigned_label("C[C@@H]1CNC[C@@H](C(=O)Nc2ncc(SCc3ncc(C(C)(C)C)o3)s2)C1")
"interval 1"
>>> assigned_label("CC(C)(C)c1cnc(CSc2cnc(NC(=O)C3CCNCC3)s2)o1")
"interval 3"
>>> assigned_label("CC(C)C1CC(C(=O)Nc2ncc(SCc3ncc(C(C)(C)C)o3)s2)CCN1 (stereo not given)")
"interval 1"
>>> assigned_label("C[C@H]1CNC[C@H](C(=O)Nc2ncc(SCc3ncc(C(C)(C)C)o3)s2)C1")
"interval 2"
>>> assigned_label("CC1CCC(C(=O)Nc2ncc(SCc3ncc(C(C)(C)C)o3)s2)CN1 (stereo not given)")
"interval 1"
>>> assigned_label("C[C@@H]1CNC[C@H](C(=O)Nc2ncc(SCc3ncc(C(C)(C)C)o3)s2)C1")
"interval 2"
>>> assigned_label("CC(C)(C)c1cnc(CSc2cnc(NC(=O)C3CCCNC3)s2)o1 (stereo not given)")
"interval 3"

* * *

study.target: Cyclin-dependent kinase 1/cyclin B1 (Homo sapiens, UniProt P06493)
Sequence (P06493 whole entry): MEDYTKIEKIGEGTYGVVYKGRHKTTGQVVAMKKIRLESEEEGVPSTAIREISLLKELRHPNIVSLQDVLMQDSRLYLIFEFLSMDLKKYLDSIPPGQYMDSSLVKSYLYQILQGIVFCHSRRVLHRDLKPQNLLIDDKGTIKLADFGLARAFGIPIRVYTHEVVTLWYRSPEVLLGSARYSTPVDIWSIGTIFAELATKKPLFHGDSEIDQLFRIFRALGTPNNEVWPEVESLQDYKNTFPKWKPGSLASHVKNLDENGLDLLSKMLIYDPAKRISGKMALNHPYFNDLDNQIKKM
Sequence (P14635 whole entry, further chain): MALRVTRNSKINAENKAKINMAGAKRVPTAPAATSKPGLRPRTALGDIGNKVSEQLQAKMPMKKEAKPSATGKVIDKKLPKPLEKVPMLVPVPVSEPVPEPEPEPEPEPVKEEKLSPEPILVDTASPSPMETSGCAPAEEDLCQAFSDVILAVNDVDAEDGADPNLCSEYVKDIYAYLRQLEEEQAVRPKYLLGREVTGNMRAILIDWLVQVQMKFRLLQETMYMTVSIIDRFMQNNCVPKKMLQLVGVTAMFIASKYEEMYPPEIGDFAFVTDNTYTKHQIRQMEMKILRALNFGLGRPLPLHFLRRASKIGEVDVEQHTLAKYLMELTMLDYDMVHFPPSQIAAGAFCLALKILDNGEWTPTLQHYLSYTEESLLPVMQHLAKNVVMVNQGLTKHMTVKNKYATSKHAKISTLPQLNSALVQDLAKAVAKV
protocol: Inhibition of CDK1/Cyclin B
Assay type: protein-complex assay
endpoint: IC50

>>> measurement("C[C@@H]1CNC[C@H](C(=O)Nc2ncc(SCc3ncc(C(C)(C)C)o3)s2)C1")
"120 nM"

* * *

Measured remaining at 1 h, 1 µM, listed per entry for reference.
protocol: Stability in mouse liver microsomes at 1 uM after 60 mins by LC-MS/MS method
Type: ADME, Microsome
test.context: read-out: Stability
endpoint: remaining at 1 h, 1 µM (%)

>>> measurement("CC1NCCCC1C(=O)Nc1ncc(SCc2ncc(C(C)(C)C)o2)s1 (stereo not given)")
2
>>> measurement("C[C@H]1CNC[C@@H](C(=O)Nc2ncc(SCc3ncc(C(C)(C)C)o3)s2)C1")
33
>>> measurement("C[C@@H]1CNC[C@H](C(=O)Nc2ncc(SCc3ncc(C(C)(C)C)o3)s2)C1")
13
>>> measurement("CC1CNCC(C(=O)Nc2ncc(SCc3ncc(C(C)(C)C)o3)s2)C1 (stereo not given)")
27
>>> measurement("CC(C)(C)c1cnc(CSc2cnc(NC(=O)C3CCNCC3)s2)o1 [BMS-387032]")
94

* * *

study.target: Cyclin-dependent kinase 9 (Homo sapiens, UniProt P50750)
Sequence (P50750 whole entry): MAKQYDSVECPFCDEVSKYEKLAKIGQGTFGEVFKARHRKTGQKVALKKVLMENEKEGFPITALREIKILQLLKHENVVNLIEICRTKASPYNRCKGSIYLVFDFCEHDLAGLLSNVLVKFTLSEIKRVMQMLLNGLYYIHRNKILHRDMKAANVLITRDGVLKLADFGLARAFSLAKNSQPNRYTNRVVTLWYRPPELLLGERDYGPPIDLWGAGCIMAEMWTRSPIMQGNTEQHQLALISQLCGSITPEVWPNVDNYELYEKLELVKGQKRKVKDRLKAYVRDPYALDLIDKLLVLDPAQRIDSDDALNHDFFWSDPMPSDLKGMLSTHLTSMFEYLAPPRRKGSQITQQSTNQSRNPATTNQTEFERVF
protocol: Inhibition of CDK9-mediated RNA pol 2 phosphorylation at ser2 in human HCT116 cells after 16 hrs by HCS assay
pIC50: −log10 of the molar value.
endpoint: pIC50

>>> measurement("C[C@H]1CNC[C@H](C(=O)Nc2ncc(SCc3ncc(C(C)(C)C)o3)s2)C1")
6.11
>>> measurement("C[C@@H]1CNC[C@H](C(=O)Nc2ncc(SCc3ncc(C(C)(C)C)o3)s2)C1")
6.92
>>> measurement("CC(C)C1CC(C(=O)Nc2ncc(SCc3ncc(C(C)(C)C)o3)s2)CCN1 (stereo unspecified)")
6.09
>>> measurement("C[C@H]1CNC[C@@H](C(=O)Nc2ncc(SCc3ncc(C(C)(C)C)o3)s2)C1")
5.49
>>> measurement("CC1NCCCC1C(=O)Nc1ncc(SCc2ncc(C(C)(C)C)o2)s1 (stereo unspecified)")
5.80
>>> measurement("CCC1CC(C(=O)Nc2ncc(SCc3ncc(C(C)(C)C)o3)s2)CCN1 (stereo unspecified)")
6.17
>>> measurement("CC1CCC(C(=O)Nc2ncc(SCc3ncc(C(C)(C)C)o3)s2)CN1 (stereo unspecified)")
6.43
>>> measurement("CC(C)(C)c1cnc(CSc2cnc(NC(=O)C3CCCNC3)s2)o1 (stereo unspecified)")
6.26
>>> measurement("C[C@@H]1CNC[C@@H](C(=O)Nc2ncc(SCc3ncc(C(C)(C)C)o3)s2)C1")
5.39
>>> measurement("CC1CNCC(C(=O)Nc2ncc(SCc3ncc(C(C)(C)C)o3)s2)C1 (stereo unspecified)")
6.57
>>> measurement("CC1CC(C(=O)Nc2ncc(SCc3ncc(C(C)(C)C)o3)s2)CCN1 (stereo unspecified)")
5.82

* * *

protocol: Apparent permeability from apical to basolateral side in MDCK cells at 2 uM by LC-MS/MS method
Assay type: ADME, cell-based, Canis lupus familiaris
test.context: dog
Measured Papp A→B at 2 µM, listed per entry for reference.
endpoint: Papp A→B at 2 µM (×10⁻⁶ cm/s)

>>> measurement("CCC1CC(C(=O)Nc2ncc(SCc3ncc(C(C)(C)C)o3)s2)CCN1 (stereo unspecified)")
0.075
>>> measurement("CC(C)(C)c1cnc(CSc2cnc(NC(=O)C3CCCNC3)s2)o1 (stereo unspecified)")
0.125
>>> measurement("CC1CCC(C(=O)Nc2ncc(SCc3ncc(C(C)(C)C)o3)s2)CN1 (stereo unspecified)")
0.4
>>> measurement("C[C@H]1CNC[C@@H](C(=O)Nc2ncc(SCc3ncc(C(C)(C)C)o3)s2)C1")
0.167
>>> measurement("CC1CNCC(C(=O)Nc2ncc(SCc3ncc(C(C)(C)C)o3)s2)C1 (stereo unspecified)")
0.233
>>> measurement("CC1CC(C(=O)Nc2ncc(SCc3ncc(C(C)(C)C)o3)s2)CCN1 (stereo unspecified)")
0.0217
>>> measurement("CC1NCCCC1C(=O)Nc1ncc(SCc2ncc(C(C)(C)C)o2)s1 (stereo unspecified)")
0.417
>>> measurement("C[C@@H]1CNC[C@H](C(=O)Nc2ncc(SCc3ncc(C(C)(C)C)o3)s2)C1")
0.08
>>> measurement("C[C@H]1CNC[C@H](C(=O)Nc2ncc(SCc3ncc(C(C)(C)C)o3)s2)C1")
0.433
>>> measurement("CC(C)(C)c1cnc(CSc2cnc(NC(=O)C3CCNCC3)s2)o1")
0.0167
>>> measurement("CC(C)C1CC(C(=O)Nc2ncc(SCc3ncc(C(C)(C)C)o3)s2)CCN1 (stereo unspecified)")
0.0533

* * *

study.target: CDK9/cyclin T1 (Homo sapiens)
Sequence (O60563 whole entry): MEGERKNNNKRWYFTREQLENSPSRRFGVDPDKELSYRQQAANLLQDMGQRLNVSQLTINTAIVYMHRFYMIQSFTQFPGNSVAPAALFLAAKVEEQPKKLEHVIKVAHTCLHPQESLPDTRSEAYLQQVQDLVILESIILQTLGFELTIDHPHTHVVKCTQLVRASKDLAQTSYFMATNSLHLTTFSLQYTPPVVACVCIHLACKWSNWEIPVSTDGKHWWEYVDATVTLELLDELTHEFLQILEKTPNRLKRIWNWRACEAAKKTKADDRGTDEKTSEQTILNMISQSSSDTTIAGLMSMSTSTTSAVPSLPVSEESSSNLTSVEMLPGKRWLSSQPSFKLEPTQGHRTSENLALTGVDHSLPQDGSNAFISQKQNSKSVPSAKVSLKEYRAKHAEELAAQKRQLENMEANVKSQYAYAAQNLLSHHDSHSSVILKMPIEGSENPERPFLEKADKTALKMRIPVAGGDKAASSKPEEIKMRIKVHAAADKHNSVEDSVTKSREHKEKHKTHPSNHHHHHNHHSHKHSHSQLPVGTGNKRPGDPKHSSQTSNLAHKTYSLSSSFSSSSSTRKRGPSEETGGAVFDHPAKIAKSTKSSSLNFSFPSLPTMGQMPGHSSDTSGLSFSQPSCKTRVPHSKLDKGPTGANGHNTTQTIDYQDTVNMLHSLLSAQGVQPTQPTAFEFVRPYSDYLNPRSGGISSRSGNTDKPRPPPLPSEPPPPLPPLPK
Sequence (P50750 whole entry): as the sequence (P50750 whole entry) above
protocol: Inhibition of CDK9/Cyclin T
endpoint: IC50 (nM)

>>> measurement("C[C@@H]1CNC[C@H](C(=O)Nc2ncc(SCc3ncc(C(C)(C)C)o3)s2)C1")
4

* * *

study.target: Cyclin-dependent kinase 7/ cyclin H (Homo sapiens, UniProt P50613)
Sequence (P51946 whole entry): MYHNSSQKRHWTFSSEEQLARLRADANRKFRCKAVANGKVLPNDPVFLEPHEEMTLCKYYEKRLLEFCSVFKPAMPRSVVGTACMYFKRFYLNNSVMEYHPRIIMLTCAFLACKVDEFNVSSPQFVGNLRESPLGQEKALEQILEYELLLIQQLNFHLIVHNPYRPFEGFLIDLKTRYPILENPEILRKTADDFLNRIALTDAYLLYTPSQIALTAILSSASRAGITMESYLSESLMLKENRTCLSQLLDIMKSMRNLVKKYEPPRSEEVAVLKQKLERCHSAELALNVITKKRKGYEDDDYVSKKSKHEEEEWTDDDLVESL
Sequence (P50613 whole entry): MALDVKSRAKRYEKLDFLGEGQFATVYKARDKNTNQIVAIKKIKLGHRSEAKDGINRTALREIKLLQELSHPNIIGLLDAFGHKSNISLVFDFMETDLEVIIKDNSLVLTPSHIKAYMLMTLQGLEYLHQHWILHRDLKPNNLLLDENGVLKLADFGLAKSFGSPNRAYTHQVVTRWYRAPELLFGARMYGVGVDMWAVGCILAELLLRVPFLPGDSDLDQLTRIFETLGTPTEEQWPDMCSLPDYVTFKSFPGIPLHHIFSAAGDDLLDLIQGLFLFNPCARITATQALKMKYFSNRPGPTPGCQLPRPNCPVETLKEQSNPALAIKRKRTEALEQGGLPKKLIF
protocol: Inhibition of CDK7/Cyclin H
pIC50: −log10 of the molar value.
endpoint: pIC50

>>> measurement("C[C@@H]1CNC[C@H](C(=O)Nc2ncc(SCc3ncc(C(C)(C)C)o3)s2)C1")
6.96

* * *

protocol: Stability in human liver microsomes at 1 uM after 30 mins by LC-MS/MS method
Assay type: ADME, Microsome
test.context: read-out: Stability
endpoint: remaining at 0.5 h, 1 µM

>>> measurement("C[C@H]1CNC[C@H](C(=O)Nc2ncc(SCc3ncc(C(C)(C)C)o3)s2)C1")
"61%"
>>> measurement("CCC1CC(C(=O)Nc2ncc(SCc3ncc(C(C)(C)C)o3)s2)CCN1 (stereo not drawn)")
"60%"
>>> measurement("CC1CNCC(C(=O)Nc2ncc(SCc3ncc(C(C)(C)C)o3)s2)C1 (stereo not drawn)")
"60%"

Data provenance is ChEMBL document CHEMBL1152130.
